- Tested on: MCF7 breast
- experiment-summary: NCI tumour cell line growth inhibition, 48 h
We begin with a simple list: items and their reported TGI.
// units = µM; emit number, no label

As a guide, the following entries are already answered.
O=C1c2cccnc2-c2nc(-c3ccccc3[N+](=O)[O-])cc3c2c1nc1ccccc13 | 15.4
Cc1cc2nc(C(Cl)Cl)nc(-c3ccc(Cl)cc3)n2n1 | 5.1
S=C(N1CCN(c2ccc(Cl)c(Cl)c2)CC1)N1CCN(c2ccc(Cl)c(Cl)c2)CC1 | 24
C=Cc1nc2c(Cl)ncnc2n1Cc1ccccc1 | 9.53

Kindly review the next compound as well.
Inquiry: Find TGI (MCF7 breast) for the entry "O=C1c2ccccc2C(=O)c2sc(Nc3cccc(Cl)c3)nc21"
Reply text: 2.46
